# targetDesc: recombinant rat PAI-1 (Rattus norvegicus)
# Sequence (P20961 24-402): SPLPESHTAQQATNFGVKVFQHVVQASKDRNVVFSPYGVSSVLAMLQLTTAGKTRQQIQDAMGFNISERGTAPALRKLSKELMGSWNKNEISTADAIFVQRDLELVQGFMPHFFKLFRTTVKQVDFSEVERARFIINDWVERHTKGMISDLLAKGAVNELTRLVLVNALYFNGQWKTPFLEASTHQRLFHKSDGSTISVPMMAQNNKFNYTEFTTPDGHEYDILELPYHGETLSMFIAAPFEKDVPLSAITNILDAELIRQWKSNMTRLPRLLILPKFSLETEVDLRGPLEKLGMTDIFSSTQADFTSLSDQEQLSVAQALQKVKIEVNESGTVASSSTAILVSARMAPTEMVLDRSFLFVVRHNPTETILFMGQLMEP
# testProtocol: Test Example 3: rat PAI-1 inhibitory activity (as Test Example 2 with rat PAI-1)
# measurementConditions: rat PAI-1; calculated from the inhibition rates
Could you please report measured pIC50 for the items listed next?
Convention used: pIC50 is expressed as -log10 of the molar concentration.

Query pIC50 on recombinant rat PAI-1 (Rattus norvegicus) for CCCCOc1ccc(N(CCCCc2ccccc2)C(=O)C(=O)O)cc1-c1ccc(OC(F)(F)F)cc1 [Compound 227]
5.71

Entry CCCCC(c1ccc(C(C)(C)C)cc1)N(C(=O)C(=O)O)c1ccc(-c2ccc(OC(F)(F)F)cc2)cc1 (stereo not drawn) [Compound 221] , system recombinant rat PAI-1 (Rattus norvegicus): what pIC50 was measured?
5.90

Form field: pIC50 recorded for CCCCOc1ccc(-c2ccc(OC(F)(F)F)cc2)cc1N(CCCCc1ccccc1)C(=O)C(=O)O [Compound 231] with recombinant rat PAI-1 (Rattus norvegicus) (enter value)
5.80

Please provide the recorded pIC50 for CC(C)(C)c1ccc(Oc2ccc(Oc3ccc(OC(F)(F)F)cc3)cc2CCC(=O)O)cc1 [Compound 100] , tested on recombinant rat PAI-1 (Rattus norvegicus).
5.64

What pIC50 appears in the records for this compound with recombinant rat PAI-1 (Rattus norvegicus)? CC(C)(C)c1ccc(COc2c(CCC(=O)O)cccc2-c2ccc(OC(F)(F)F)cc2)cc1 [Compound 88]
5.49

What reported pIC50 corresponds to CCC(CC)Oc1ccc(-c2ccc(OC(F)(F)F)cc2)cc1N(CCCc1ccccc1)C(=O)C(=O)O [Compound 233] on recombinant rat PAI-1 (Rattus norvegicus)?
5.84

# value lookup — system recombinant rat PAI-1 (Rattus norvegicus), readout pIC50, item CC(C)c1ccc(Oc2ccc(CCC(=O)O)c(Oc3ccc(C(C)C)cc3)c2)cc1 [Compound 73]
5.68

Param readout = pIC50; param system = recombinant rat PAI-1 (Rattus norvegicus); param query = CC(C)(C)c1ccc(COc2cc(-c3ccc(OC(F)(F)F)cc3)ccc2CCC(=O)O)cc1 [Compound 76] ; response: value
5.54

Which measured pIC50 belongs to CC(C)(Oc1cccc(-c2ccc(OC(F)(F)F)cc2)c1OCc1ccc(C(C)(C)C)cc1)C(=O)O [Compound 118] , tested on recombinant rat PAI-1 (Rattus norvegicus)?
5.72

API: value(readout=pIC50, system=recombinant rat PAI-1 (Rattus norvegicus)) for record CC(C)(C)c1ccc(C(c2ccccc2)N(C(=O)C(=O)O)c2ccc(-c3ccc(OC(F)(F)F)cc3)cc2)cc1 (stereo not drawn) [Compound 222]
5.87

Checklist item: pIC50 tested on recombinant rat PAI-1 (Rattus norvegicus), entry CC(C)(C)c1ccc(Oc2cccc(-c3ccc(OC(F)(F)F)cc3)c2CCC(=O)O)cc1 [Compound 94] , value?
5.50

Item: CC(C)(C)c1ccc(COc2cc(Oc3ccc(OC(F)(F)F)cc3)ccc2CCC(=O)O)cc1 [Compound 78] Test system: recombinant rat PAI-1 (Rattus norvegicus) Read-out: pIC50 Value: ?
5.63

Lab note: need pIC50 for CC(C)(C)c1ccc(COc2cccc(Oc3ccc(OC(F)(F)F)cc3)c2CCC(=O)O)cc1 [Compound 86] on recombinant rat PAI-1 (Rattus norvegicus), anyone have it?
5.28

API: value(readout=pIC50, system=recombinant rat PAI-1 (Rattus norvegicus)) for record CC(C)(C)c1ccc(Oc2cc(Oc3ccc(OC(F)(F)F)cc3)ccc2CCC(=O)O)cc1 [Compound 90]
5.58

For recombinant rat PAI-1 (Rattus norvegicus), provide pIC50 of CCC(CC)Oc1ccc(N(CCCc2ccccc2)C(=O)C(=O)O)cc1-c1ccc(OC(F)(F)F)cc1 [Compound 230] please.
5.74
